Target: recombinant homotrimeric HA, A/Wisconsin/67/05 H3N2 (Influenza A virus A/Wisconsin/67/05 (H3N2))
Assay: trimeric HA microarray, transfection set 4
Settings: remark: other sources report otherwise
Recorded Trimeric HA Binding RLU, one value per entry.
Please respond with the number in RLU and leave the unit unwritten.

Recorded results for 2 binders are shown here.
| binder | output-unit | Trimeric HA Binding RLU |
| --- | --- | --- |
| TCN-504 (3251_K17) (antibody, V domains shown) VH: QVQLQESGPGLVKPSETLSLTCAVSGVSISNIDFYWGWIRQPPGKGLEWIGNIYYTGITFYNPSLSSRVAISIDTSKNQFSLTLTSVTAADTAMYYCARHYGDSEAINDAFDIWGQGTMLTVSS VL: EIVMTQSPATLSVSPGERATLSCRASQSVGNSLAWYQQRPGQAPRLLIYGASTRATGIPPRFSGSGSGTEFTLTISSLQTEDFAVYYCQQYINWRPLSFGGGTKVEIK | RLU | 20600 |
| TCN-536 (5095_N01) (antibody, V domains shown) VH: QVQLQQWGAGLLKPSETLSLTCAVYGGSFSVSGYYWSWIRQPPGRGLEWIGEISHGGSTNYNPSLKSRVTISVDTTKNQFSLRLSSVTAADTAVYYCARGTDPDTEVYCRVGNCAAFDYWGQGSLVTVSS VL: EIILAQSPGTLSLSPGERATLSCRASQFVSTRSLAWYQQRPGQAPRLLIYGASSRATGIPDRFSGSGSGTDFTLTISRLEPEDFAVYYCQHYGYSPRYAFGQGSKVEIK | RLU | 20600 |

// moving on: another record for Trimeric HA Binding RLU
For TCN-534 (5249_B02) (antibody, V domains shown) VH: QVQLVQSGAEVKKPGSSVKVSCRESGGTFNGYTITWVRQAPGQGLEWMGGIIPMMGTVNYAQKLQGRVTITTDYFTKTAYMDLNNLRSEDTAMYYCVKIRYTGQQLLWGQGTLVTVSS VL: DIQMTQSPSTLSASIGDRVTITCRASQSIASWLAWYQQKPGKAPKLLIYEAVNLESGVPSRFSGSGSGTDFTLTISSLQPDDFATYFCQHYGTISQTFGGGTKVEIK the binder record lists Trimeric HA Binding RLU as 897
